In this section, each of the molecules is paired with its reported GI50.
system: IGROV-1; assay: NCI tumour cell line growth inhibition, 48 h
Activity calls are given as the source filed them. No stated cut-off is given here; in the data, active = GI50 up to about 1.1 µM and inactive = higher.

Answered examples (3):
{"molecule": "CCOC(=O)c1nc2cc(C(F)(F)F)ccc2nc1Oc1ccc(C#N)cc1", "measure-name": "GI50", "test-value": "> 100 µM (inactive)"}
{"molecule": "C=C(C)CCC1C=[N+]([O-])OC(C)(C)C1(C)C (centres undefined)", "measure-name": "GI50", "test-value": "> 100 µM (inactive)"}
{"molecule": "CC(C)(C)CC(C)(C)NCC(O)COc1ccc(C(C)(C)c2ccc(OCC(O)CNC(C)(C)CC(C)(C)C)cc2)cc1 (centres undefined)", "measure-name": "GI50", "test-value": "1.77 µM (inactive)"}

Okay, next one:
Consider the molecule shown here: COC(=O)N/N=C(\C(=O)Nc1cccc([N+](=O)[O-])c1)c1nc2ccc([N+](=O)[O-])cc2nc1O What is its recorded GI50?
64.6 µM (inactive)

* * *

tested on: CCRF-CEM; assay: NCI tumour cell line growth inhibition, 48 h
Active and inactive are the calls of the source. Rule as the data show it: active = GI50 up to about 1.1 µM and inactive = higher.
measure-name: GI50

Answered examples (3):
{"compound": "COc1ccccc1NC(=S)Nc1cc(C)ccn1", "test-value": "> 100 µM (inactive)"}
{"compound": "O=C1Cc2c([nH]c3ccccc23)C2(CC3CCCCN13)OCCO2 (centres undefined)", "test-value": "90.4 µM (inactive)"}
{"compound": "O=C(Cn1c2c(c3ccccc31)CCCC2)N1CCOCC1", "test-value": "> 100 µM (inactive)"}

Consider the compound shown here: N/N=C(\c1nc2ccc([N+](=O)[O-])cc2nc1O)C(O)c1ccc(Cl)c(Cl)c1 (centres undefined) What is its recorded GI50?
15.8 µM (inactive)

* * *

test system: SN12C; assay: NCI tumour cell line growth inhibition, 48 h
Active and inactive are the calls of the source. Cut-off read from the data, not from the text of the source: active = GI50 up to about 1.1 µM and inactive = higher. Non-standard residues stand in square brackets, D forms with d. Residues, ends and D or L forms follow the SMILES beside them. ξ: configuration not given here. ξLac(3-iPr) = CC(C)CC(O)C(=O)O; NMeV = CN[CH](C(=O)O)C(C)C; NMeA = CN[CH](C)C(=O)O; βAla = NCCC(=O)O
Returns: one label drawn from active, inactive

Look over these answered cases.
{"compound": "COC(CO[Si](C)(C)N[Si](C)(C)OCC(OC)c1ccccc1)c1ccccc1 (stereo not given)", "target-entity": "SN12C", "discrete-label": "inactive"}
{"compound": "CCOC(=O)C1C(c2ccccc2)C2(C#N)C(=N)OC1(C)C2(C#N)C#N (stereo not given)", "target-entity": "SN12C", "discrete-label": "inactive"}
{"compound": "CCC(C)C1NC(=O)C2CCCN2C(=O)C(CC(C)C)OC(=O)CCNC(=O)C(C)N(C)C(=O)C(C(C)C)N(C)C1=O (stereo not given) (cyclo([ξLac(3-iPr)]PI[NMeV][NMeA][βAla]); configuration not given here)", "target-entity": "SN12C", "discrete-label": "inactive"}
{"compound": "C/C(=N\\NC(=S)N(C)C)c1ccccn1", "target-entity": "SN12C", "discrete-label": "active"}
{"compound": "COc1ccc(Cc2n[nH]c(Nc3ccc(Br)cc3)nc2=O)cc1OC", "target-entity": "SN12C", "discrete-label": "inactive"}
{"compound": "CCN1CCCC(NCc2c3ccccc3c(CNC3CCCN(CC)C3)c3ccccc23)C1 (stereo not given)", "target-entity": "SN12C", "discrete-label": "inactive"}

Kindly review the next compound as well.
Fill in: this test's call for Cc1cc(O)c(-c2cc(O)c(C)cc2O)cc1O is ___
inactive

* * *

tested on: UACC-257; test: NCI tumour cell line growth inhibition, 48 h
Activity calls are given as the source filed them. No stated cut-off is given here; in the data, active = GI50 up to about 1.1 µM and inactive = higher.
Returns: one label drawn from 1 for active, 0 for inactive

Look over these answered cases.
{"compound": "O=C(C=P(c1ccccc1)(c1ccccc1)c1ccccc1)c1ccccc1-c1ccccc1C(=O)C=P(c1ccccc1)(c1ccccc1)c1ccccc1", "discrete-label": 1}
{"compound": "COc1cc(OC)c(/C=N\\Nc2nc3ccccc3c(=O)n2-c2ccccc2)c(OC)c1", "discrete-label": 0}
{"compound": "O=[N+]([O-])c1ccc2nc3ccccc3cc2c1", "discrete-label": 0}
{"compound": "O=C1c2cccc3cc([N+](=O)[O-])cc(c23)C(=O)N1c1ccc(OCCN2CCCC2)cc1", "discrete-label": 0}
{"compound": "O=P1(c2ccccc2)c2ccccc2-c2ccccc21", "discrete-label": 0}

Fill in: this test's call for c1ccc(CN2C3C4N(Cc5ccccc5)C2C2N(Cc5ccccc5)C(C(N2Cc2ccccc2)N4Cc2ccccc2)N3Cc2ccccc2)cc1 is ___
0

Fill in: this test's call for CC1OC(n2cc(F)c(=O)[nH]c2=O)C(O[Si](C)(C)C(C)(C)C)C1O[Si](C)(C)C(C)(C)C (configuration not stated) is ___
0

* * *

system: SK-MEL-28; experiment: NCI tumour cell line growth inhibition, 48 h
Calls of active or inactive are those of the source. Rule as the data show it: active = GI50 up to about 1.1 µM and inactive = higher.
In this section, each of the compounds is paired with its reported GI50.

Answered examples (10):
{"compound": "Cc1ccc2c(c1)NC(=O)CC(c1ccccc1)=N2", "measure-name": "GI50", "test-value": "> 100 µM (inactive)"}
{"compound": "O=C1c2ccccc2C(=O)c2c(O)c(NCCCNCCO)cc(O)c21", "measure-name": "GI50", "test-value": "16.2 µM (inactive)"}
{"compound": "COC(=O)c1c(C)c2c(c(C)c1O)OC(=O)c1c(C)cc(O)c(C=O)c1O2", "measure-name": "GI50", "test-value": "> 100 µM (inactive)"}
{"compound": "COC(=O)[C@@]12C3=NO[C@]1(C(=O)OC)C(O[Si](C)(C)C(C)(C)C)C1OC(C)(C)OC1[C@@H]2[C@@H](OCc1ccccc1)CC3 (stereo partly specified)", "measure-name": "GI50", "test-value": "> 100 µM (inactive)"}
{"compound": "O=C(/C=C/c1ccc(O)c(O)c1)Oc1ccccc1", "measure-name": "GI50", "test-value": "22.5 µM (inactive)"}
{"compound": "O=C1C2c3[nH]c4ccccc4c3C3CCCCCCC3C2C(=O)N1c1ccccc1 (stereo unspecified)", "measure-name": "GI50", "test-value": "14.6 µM (inactive)"}
{"compound": "CC(=O)NNc1nc(C)c(C(=O)NNC(=O)C(=O)Nc2c(C)cccc2C)s1", "measure-name": "GI50", "test-value": "76.6 µM (inactive)"}
{"compound": "CC1(C)C(=O)C2(OS(=O)(=O)C(F)(F)F)CCC1C2 (stereo unspecified)", "measure-name": "GI50", "test-value": "> 100 µM (inactive)"}
{"compound": "CN(C)CCCN1CCc2c([nH]c3ccccc23)C1c1cccnc1 (stereo unspecified)", "measure-name": "GI50", "test-value": "80 µM (inactive)"}
{"compound": "CC1(C)OCC(C2OC(OC(=O)c3ccc([N+](=O)[O-])cc3)C3OC(C)(C)OC23)O1 (stereo unspecified)", "measure-name": "GI50", "test-value": "> 100 µM (inactive)"}

Okay, next one:
For the record C=C(CN(C)C)C(=O)c1ccccc1Cl , what value of GI50 is listed for SK-MEL-28?
7.59 µM (inactive)

* * *

test system: MDA-MB-435; experiment: NCI tumour cell line growth inhibition, 48 h
Active and inactive are the calls of the source. No stated cut-off is given here; in the data, active = GI50 up to about 1.1 µM and inactive = higher.
In this section, each of the compounds is paired with its reported GI50.

{"compound": "c1ccc(CN2C3C4N(Cc5ccccc5)C2C2N(Cc5ccccc5)C(C(N2Cc2ccccc2)N4Cc2ccccc2)N3Cc2ccccc2)cc1", "GI50": "> 100 µM (inactive)"}
{"compound": "CCOP(=O)(OCC)/C(C#N)=C/c1cccn1C(C)C", "GI50": "> 100 µM (inactive)"}
{"compound": "COc1cc(OC)c2c(O)c3c(cc2c1)CC(C)(C)CC3=O", "GI50": "19.4 µM (inactive)"}
{"compound": "COc1cc2cc(C(=O)N3CC(CCl)c4c3cc([N+](=O)[O-])c3ccccc43)[nH]c2c(OC)c1OC (configuration not stated)", "GI50": "> 100 µM (inactive)"}

For the record NCCCN(CCCCN(CCCN)Cc1ccccc1)Cc1ccccc1 , what value of GI50 is listed for MDA-MB-435?
56.1 µM (inactive)

For the record O=C(CCC(=O)CC(O)(C(F)(F)F)C(F)(F)F)CC(O)(C(F)(F)F)C(F)(F)F , what value of GI50 is listed for MDA-MB-435?
47.9 µM (inactive)

For the record CCC/C(Cl)=N/OC(NC(=O)OCC)(C(F)(F)F)C(F)(F)F , what value of GI50 is listed for MDA-MB-435?
18.6 µM (inactive)

For the record COc1ccc(/C=C2\N=C(SC)NC2=O)cc1 , what value of GI50 is listed for MDA-MB-435?
91.8 µM (inactive)

For the record COc1cc2c(c(OC)c1OC)C(=O)[C@H]1OC(=O)N[C@@H]21 , what value of GI50 is listed for MDA-MB-435?
> 100 µM (inactive)

For the record COc1ccc2[nH]c(C(O)(Cc3cccnc3)Cc3cccnc3)cc2c1 , what value of GI50 is listed for MDA-MB-435?
> 100 µM (inactive)

For the record CC1OC(n2cc(F)c(=O)[nH]c2=O)C(O[Si](C)(C)C(C)(C)C)C1O[Si](C)(C)C(C)(C)C (configuration not stated) , what value of GI50 is listed for MDA-MB-435?
17.9 µM (inactive)

For the record O=S(=O)(/C=C/C=C/[S+]([O-])c1ccccc1)c1ccccc1 (configuration not stated) , what value of GI50 is listed for MDA-MB-435?
2.07 µM (inactive)

Hello, the source for this data is ChEMBL document CHEMBL1201862, in case you need it.
